assay: Human HepG2 cell viability assay in 384 well format; type: toxicity, cell-based; set-up: dose 125 nL, time 70.5 hour; concentration not given beside the values; conditions: HepG2 cells, read-out: Inhibition
endpoint: cytotoxicity at 70.5 h (%)
Could you give me the number in %? Just the number is fine.

Q: For the compound Cc1nc2c(c(N3CCN(Cc4ccco4)CC3)n1)CCNCC2 , report cytotoxicity at 70.5 h.
A: -4.87

Q: For the compound Cc1cnn(CCNCC(O)c2ccc(C(F)(F)F)cc2)c1 (stereo not drawn) , report cytotoxicity at 70.5 h.
A: -17.1

Q: For the compound CCN(Cc1ccc2c(c1)OCO2)S(=O)(=O)N(C)C(C)C , report cytotoxicity at 70.5 h.
A: -1.76

Q: For the compound Cn1cc(NC(=O)N2CCC(CN3CCCC3)CC2)ccc1=O , report cytotoxicity at 70.5 h.
A: -0.384

Q: For the compound Cc1cc(C(=O)NS(=O)(=O)Cc2ccon2)c(C)n1C(C)C , report cytotoxicity at 70.5 h.
A: -4.61

Q: For the compound CCC(=O)NCCCn1c(-c2cccnc2C)cc2cccnc21 , report cytotoxicity at 70.5 h.
A: -1.81

Q: For the compound N#Cc1ccc(CNC(=O)NC2CCN(CC(F)F)CC2)cc1 , report cytotoxicity at 70.5 h.
A: -9.49

Q: For the compound Cc1cc(N2CCN(C(=O)CCc3scnc3C)CC2)cc(C)n1 , report cytotoxicity at 70.5 h.
A: 21.2

Q: For the compound CCN(Cc1cnn(C)c1)C[C@H]1CC[C@@H](Cc2cccc(C#N)c2)O1 , report cytotoxicity at 70.5 h.
A: -5.55

Q: For the compound CNC(=O)CN1CCCC12CCN(Cc1c[nH]cn1)CC2 , report cytotoxicity at 70.5 h.
A: -24.2

Q: For the compound O=C(CNc1cccc2c1CCCC2)Nc1ccccc1Br , report cytotoxicity at 70.5 h.
A: 2.61

Q: For the compound CN(Cc1ccncc1)C(=O)[C@H]1CSCN1C(=O)OC(C)(C)C , report cytotoxicity at 70.5 h.
A: -2.79

Q: For the compound c1ncn(CC2CN(CC3CCCCC3)CCO2)n1 (stereo not drawn) , report cytotoxicity at 70.5 h.
A: 2.16

Q: For the compound Cc1occc1CNc1ncccc1S(N)(=O)=O , report cytotoxicity at 70.5 h.
A: -3.76

Q: For the compound CC(C)N1CCOCC2(CCCN(C(=O)c3cncn3C)C2)C1 (stereo not drawn) , report cytotoxicity at 70.5 h.
A: -8.05

Q: For the compound CNc1ncc(CN(C)Cc2cc(O)c3cc(C)cc(C)c3n2)cn1 , report cytotoxicity at 70.5 h.
A: -15.9

Q: For the compound Cc1cc(C)cc(CN2C[C@H]3COC[C@H](N4CCN(C)CC4)[C@H]3C2)c1 , report cytotoxicity at 70.5 h.
A: -6.19

Q: For the compound O=C(CC1CCc2ccccc21)N1CCC(O)(Cn2ccnc2)CC1 (stereo not drawn) , report cytotoxicity at 70.5 h.
A: -5.64
